System: NCI-H1048 cells
EXPERIMENT_DESCRIPTION: MTT proliferation assay, NCI-H1048;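 further: Dose-response in 96-well plates over 8 or 10 concentration points, with exposure spanning 3-4 cell doublings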
Assay type: cell-based
EXPERIMENTAL_CONDITIONS: 5 days compound exposure, 1:3 serial dilution starting at 10 μM
*1 amine or outer side, *2 acyl side, *3 side chain or, on linkers, in order; H or OH if unused. Where a SMILES comes first, the peptide text is derived from it. Bridges are numbered along the chain shown (N, C = ends). [ ]: non-standard residue; d: D form. The star is where a group is joined. NMePhe(2-(4-MorPh),5-Cl) = CN[C@@H](Cc1cc(Cl)ccc1-c1ccc(N2CCOCC2)cc1)C(=O)O; X202 = CN([C@@H](Cc1cc(Cl)ccc1-c1ccc(N2CCN(CC(F)F)CC2)cc1)C(=O)[*:2])[*:1]; NMehhhLys(Me) = CN([C@@H](CCCCCCCN(C)[*:3])C(=O)[*:2])[*:1]; cBuCO(3,3-F2-1-CF3) = O=C(C1(C(F)(F)F)CC(F)(F)C1)*; Pro(trans-4-F) = O=C(O)[C@@H]1C[C@@H](F)CN1; Gly(cPr) = N[C@H](C(=O)O)C1CC1
PARAMETER: GI50

Lookup: Field request: GI50 | item: CC(C)C[C@@H]1NC(=O)[C@@H](N(C)C(=O)[C@H](CCC(=O)N(C)C)NC(=O)[C@@H]2C[C@@H](F)CN2C(=O)C2(C(F)(F)F)CC(F)(F)C2)CCCCCCCN(C)C(=O)[C@H](Cc2cc(Cl)ccc2-c2ccc(N3CCOCC3)cc2)N(C)C1=O [Example 419] ({cBuCO(3,3-F2-1-CF3)}-[Pro(trans-4-F)]E(NMe2)[NMehhhLys(Me)]L[NMePhe(2-(4-MorPh),5-Cl)]; lactam 3-C)
Found: 20 nM

Lookup: Field request: GI50 | item: CC(C)C[C@@H]1NC(=O)[C@@H](N(C)C(=O)[C@@H](NC(=O)[C@@H]2C[C@@H](F)CN2C(=O)C2(C(F)(F)F)CC(F)(F)C2)C2CC2)CCCCCCCN(C)C(=O)[C@H](Cc2cc(Cl)ccc2-c2ccc(N3CCN(CC(F)F)CC3)cc2)N(C)C1=O [Example 352] ({cBuCO(3,3-F2-1-CF3)}-[Pro(trans-4-F)][Gly(cPr)][NMehhhLys(Me)]L[X202]; lactam 3-C)
Found: 10 nM

----------
TEST_TARGET: CyclinB1/CDK1 (Homo sapiens)
Construct: purchased Eurofins, discovery 14-450
EXPERIMENT_DESCRIPTION: Fluorescence Polarization (FP) competitive binding assay, Cyclin B1/Cdk1
EXPERIMENTAL_CONDITIONS: 10 nM Cyclin B1/Cdk1, 2 nM FAM probe; average of 2-3 independent experiments; read-out: Cyclin B FP IC50
*1 amine or outer side, *2 acyl side, *3 side chain or, on linkers, in order; H or OH if unused. Where a SMILES comes first, the peptide text is derived from it. Bridges are numbered along the chain shown (N, C = ends). [ ]: non-standard residue; d: D form. The star is where a group is joined. NMehhhLys(Me) = CN([C@@H](CCCCCCCN(C)[*:3])C(=O)[*:2])[*:1]; NMe3Pal(2-OiPr,5-Cl) = CN[C@@H](Cc1cc(Cl)cnc1OC(C)C)C(=O)O; X64 = CN([C@@H](Cc1cc(Cl)ccc1OC1(C)CC1)C(=O)[*:2])[*:1]; NMe(hhhLys) = CN([C@@H](CCCCCCCN[*:3])C(=O)[*:2])[*:1]; Oxane2carbonyl(2R-CF3) = O=C([C@@]1(C(F)(F)F)CCCCO1)*; X28 = CN([C@@H](Cc1cc(Cl)cnc1OC1CCC1)C(=O)[*:2])[*:1]; cBuCO(3,3-F2-1-CF3) = O=C(C1(C(F)(F)F)CC(F)(F)C1)*; Pro(trans-4-F) = O=C(O)[C@@H]1C[C@@H](F)CN1; Gly(cPr) = N[C@H](C(=O)O)C1CC1
PARAMETER: IC50 (nM)
Form entry: value (nM) — number only.

Lookup: Field request: IC50 | item: CC(C)C[C@@H]1NC(=O)[C@@H](N(C)C(=O)[C@@H](NC(=O)[C@@H]2C[C@@H](F)CN2C(=O)[C@@]2(C(F)(F)F)CCCCO2)C2CC2)CCCCCCCN(C)C(=O)[C@H](Cc2cc(Cl)ccc2OC2(C)CC2)N(C)C1=O [Example 260] ({Oxane2carbonyl(2R-CF3)}-[Pro(trans-4-F)][Gly(cPr)][NMehhhLys(Me)]L[X64]; lactam 3-C)
Found: 20

Lookup: Field request: IC50 | item: CC(C)C[C@@H]1NC(=O)[C@@H](N(C)C(=O)[C@@H](NC(=O)[C@@H]2C[C@@H](F)CN2C(=O)C2(C(F)(F)F)CC(F)(F)C2)C2CC2)CCCCCCCNC(=O)[C@H](Cc2cc(Cl)cnc2OC2CCC2)N(C)C1=O [Example 142] ({cBuCO(3,3-F2-1-CF3)}-[Pro(trans-4-F)][Gly(cPr)][NMe(hhhLys)]L[X28]; lactam 3-C)
Found: 20

Lookup: Field request: IC50 | item: CC(C)C[C@@H]1NC(=O)[C@@H](N(C)C(=O)[C@@H](NC(=O)[C@@H]2C[C@@H](F)CN2C(=O)C2(C(F)(F)F)CC(F)(F)C2)C2CC2)CCCCCCCNC(=O)[C@H](Cc2cc(Cl)cnc2OC(C)C)N(C)C1=O [Example 131] ({cBuCO(3,3-F2-1-CF3)}-[Pro(trans-4-F)][Gly(cPr)][NMe(hhhLys)]L[NMe3Pal(2-OiPr,5-Cl)]; lactam 3-C)
Found: 20

----------
TEST_TARGET: CyclinA2/CDK2 (Homo sapiens)
Construct: purchased CRELUX Protein Services
EXPERIMENT_DESCRIPTION: Fluorescence Polarization (FP) competitive binding assay, Cyclin A2/Cdk2;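 further: plates equilibrated two hours at room temperature before polarization reading, IC50 fitted from eight-concentration compound titration curves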
EXPERIMENTAL_CONDITIONS: 8 nM Cyclin A2/Cdk2, 2 nM FAM probe; average of 2-3 independent experiments; read-out: Cyclin A FP IC50
*1 amine or outer side, *2 acyl side, *3 side chain or, on linkers, in order; H or OH if unused. Where a SMILES comes first, the peptide text is derived from it. Bridges are numbered along the chain shown (N, C = ends). [ ]: non-standard residue; d: D form. The star is where a group is joined. X36 = Cc1cc(-c2ccc(Cl)cc2C[C@@H](C(=O)[*:2])N(C)[*:1])ccc1N1CCN(C)CC1; NMeAla(5-Cl-2-cPrO-3-pyridyl) = CN[C@@H](Cc1cc(Cl)cnc1OC1CC1)C(=O)O; NMehhhLys(Me) = CN([C@@H](CCCCCCCN(C)[*:3])C(=O)[*:2])[*:1]; NMe(hhhLys) = CN([C@@H](CCCCCCCN[*:3])C(=O)[*:2])[*:1]; cBuCO(3,3-F2-1-CF3) = O=C(C1(C(F)(F)F)CC(F)(F)C1)*; Pro(trans-4-F) = O=C(O)[C@@H]1C[C@@H](F)CN1; Gly(cPr) = N[C@H](C(=O)O)C1CC1
Field: IC50. Provide a value for each of the compounds that follow.
Form entry: value (nM) — number only.

Lookup: Field request: IC50 | item: CC(C)C[C@@H]1NC(=O)[C@@H](N(C)C(=O)[C@@H](NC(=O)[C@@H]2C[C@@H](F)CN2C(=O)C2(C(F)(F)F)CC(F)(F)C2)C2CC2)CCCCCCCNC(=O)[C@H](Cc2cc(Cl)cnc2OC2CC2)N(C)C1=O [Example 103] ({cBuCO(3,3-F2-1-CF3)}-[Pro(trans-4-F)][Gly(cPr)][NMe(hhhLys)]L[NMeAla(5-Cl-2-cPrO-3-pyridyl)]; lactam 3-C)
Found: 60

Lookup: Field request: IC50 | item: Cc1cc(-c2ccc(Cl)cc2C[C@H]2C(=O)N(C)CCCCCCC[C@H](N(C)C(=O)[C@@H](NC(=O)[C@@H]3C[C@@H](F)CN3C(=O)C3(C(F)(F)F)CC(F)(F)C3)C3CC3)C(=O)N[C@@H](CC(C)C)C(=O)N2C)ccc1N1CCN(C)CC1 [Example 374] ({cBuCO(3,3-F2-1-CF3)}-[Pro(trans-4-F)][Gly(cPr)][NMehhhLys(Me)]L[X36]; lactam 3-C)
Found: 20

----------
TEST_TARGET: CyclinB1/CDK1 (Homo sapiens, UniProt P14635)
Construct: purchased Eurofins, discovery 14-450
EXPERIMENT_DESCRIPTION: Fluorescence Polarization (FP) competitive binding assay, Cyclin B1/Cdk1;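 further: fluorescence polarization read after equilibration at room temperature, with IC50 taken from serially diluted dose-response curves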
EXPERIMENTAL_CONDITIONS: 10 nM Cyclin B1/Cdk1, 2 nM FAM probe; average of 2-3 independent experiments; read-out: Cyclin B FP IC50
*1 amine or outer side, *2 acyl side, *3 side chain or, on linkers, in order; H or OH if unused. Where a SMILES comes first, the peptide text is derived from it. Bridges are numbered along the chain shown (N, C = ends). [ ]: non-standard residue; d: D form. The star is where a group is joined. X115 = CN([C@@H](Cc1cc(Cl)ccc1-c1ccc(N2CCNCC2)cc1)C(=O)[*:2])[*:1]; NMehhhLys(Me) = CN([C@@H](CCCCCCCN(C)[*:3])C(=O)[*:2])[*:1]; X117 = Cc1cc(-c2ccc(F)cc2C[C@@H](C(=O)[*:2])N(C)[*:1])cnn1; NMe(hhhLys) = CN([C@@H](CCCCCCCN[*:3])C(=O)[*:2])[*:1]; X214 = CC(C)Cc1ccc(Cl)cc1C[C@@H](C(=O)[*:2])N(C)[*:1]; cBuCO(3,3-F2-1-CF3) = O=C(C1(C(F)(F)F)CC(F)(F)C1)*; Pro(trans-4-F) = O=C(O)[C@@H]1C[C@@H](F)CN1; Gly(cPr) = N[C@H](C(=O)O)C1CC1
PARAMETER: pIC50
pIC50 (log units): -log10 of the concentration in mol/L.

Lookup: Lab note: need pIC50 with CyclinB1/CDK1 (Homo sapiens, UniProt P14635) for entry Cc1cc(-c2ccc(F)cc2C[C@H]2C(=O)NCCCCCCC[C@H](N(C)C(=O)[C@@H](NC(=O)[C@@H]3C[C@@H](F)CN3C(=O)C3(C(F)(F)F)CC(F)(F)C3)C3CC3)C(=O)N[C@@H](CC(C)C)C(=O)N2C)cnn1 [Example 294] ({cBuCO(3,3-F2-1-CF3)}-[Pro(trans-4-F)][Gly(cPr)][NMe(hhhLys)]L[X117]; lactam 3-C) , please look it up.
Found: 7.70

Lookup: Lab note: need pIC50 with CyclinB1/CDK1 (Homo sapiens, UniProt P14635) for entry CC(C)C[C@@H]1NC(=O)[C@@H](N(C)C(=O)[C@@H](NC(=O)[C@@H]2C[C@@H](F)CN2C(=O)C2(C(F)(F)F)CC(F)(F)C2)C2CC2)CCCCCCCN(C)C(=O)[C@H](Cc2cc(Cl)ccc2-c2ccc(N3CCNCC3)cc2)N(C)C1=O [Example 341] ({cBuCO(3,3-F2-1-CF3)}-[Pro(trans-4-F)][Gly(cPr)][NMehhhLys(Me)]L[X115]; lactam 3-C) , please look it up.
Found: 7.70

Lookup: Lab note: need pIC50 with CyclinB1/CDK1 (Homo sapiens, UniProt P14635) for entry CC(C)Cc1ccc(Cl)cc1C[C@H]1C(=O)NCCCCCCC[C@H](N(C)C(=O)[C@@H](NC(=O)[C@@H]2C[C@@H](F)CN2C(=O)C2(C(F)(F)F)CC(F)(F)C2)C2CC2)C(=O)N[C@@H](CC(C)C)C(=O)N1C [Example 64] ({cBuCO(3,3-F2-1-CF3)}-[Pro(trans-4-F)][Gly(cPr)][NMe(hhhLys)]L[X214]; lactam 3-C) , please look it up.
Found: 7.70
